Target: T1, Human VE-PTP (HPTP-β) containing first eight FN3 repeats with C-terminal His6 tag (Human ½ VE-PTP ECD) (human, UniProt P23467 23-820)
T1 construct: Produced in HEK293 cells and purified by the His tag; it was not cut off; also called Human Beta ½ ECD
T1 sequence: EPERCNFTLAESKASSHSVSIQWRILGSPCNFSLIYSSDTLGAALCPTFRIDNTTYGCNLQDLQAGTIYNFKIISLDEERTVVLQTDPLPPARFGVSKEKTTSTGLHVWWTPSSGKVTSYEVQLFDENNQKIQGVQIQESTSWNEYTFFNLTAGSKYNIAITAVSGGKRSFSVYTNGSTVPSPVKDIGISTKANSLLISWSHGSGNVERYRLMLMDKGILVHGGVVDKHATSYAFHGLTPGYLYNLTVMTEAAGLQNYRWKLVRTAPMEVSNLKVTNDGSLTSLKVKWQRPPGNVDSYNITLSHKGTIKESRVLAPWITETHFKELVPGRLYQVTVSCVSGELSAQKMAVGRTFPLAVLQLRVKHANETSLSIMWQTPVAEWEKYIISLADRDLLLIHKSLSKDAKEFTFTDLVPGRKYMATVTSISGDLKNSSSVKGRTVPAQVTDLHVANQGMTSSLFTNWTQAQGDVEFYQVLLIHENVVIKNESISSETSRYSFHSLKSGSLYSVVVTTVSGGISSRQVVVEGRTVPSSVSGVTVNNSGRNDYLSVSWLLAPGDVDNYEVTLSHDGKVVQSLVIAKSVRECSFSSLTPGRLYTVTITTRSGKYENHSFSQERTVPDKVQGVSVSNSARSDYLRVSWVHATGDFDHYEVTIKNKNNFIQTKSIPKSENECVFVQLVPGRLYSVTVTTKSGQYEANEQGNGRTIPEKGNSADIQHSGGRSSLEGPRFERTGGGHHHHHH
Assay: SPR (Biacore 3000), antibody captured on anti-human IgG, antigen as analyte 100 nM (single concentration)
readout label: Ka (M⁻¹)
One number for each entry, in M⁻¹.

Recorded results for 2 binders are shown here.
humanized R15E6 variant HC3LC2 (antibody, human IgG4 S228P, kappa, V domains shown, Human IgG4 (S228P) / kappa, expressed in CHO cells; Signal peptides left out by range; also called VH3-VL2) VH: EVQLVESGGGLVQPGRSLRLSCTASGFTFNANAMNWVRQAPGKGLEWVGRIRTKSNNYATYYAGSVKDRFTISRDDSKNIAYLQMNSLKTEDTAVYYCVRDYYGSSAWITYWGQGTLVTVSS VL: DIVMTQSPDSLAVSLGERATINCKASQHVGTAVAWYQQKPGQPPKLLIYWASTRHTGVPDRFSGSGSGTDFTLTISSLQAEDVAVYYCQQYSSYPFTFGQGTKLEIKR : 2.06e+08
humanized R15E6 variant HC3LC4 (antibody, human IgG4 S228P, kappa, V domains shown, Human IgG4 (S228P) / kappa, expressed in CHO cells; Signal peptides left out by range; also called VH3-VL4) VH: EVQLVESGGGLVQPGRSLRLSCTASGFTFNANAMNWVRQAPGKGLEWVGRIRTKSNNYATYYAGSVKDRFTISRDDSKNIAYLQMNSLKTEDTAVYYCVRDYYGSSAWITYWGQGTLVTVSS VL: DIVMTQSPDSLAVSLGERATINCKASQHVGTAVAWYQQKPEQPPKLLIYWASTRHTGVPDRFSGSGSGTDFTLTISSLQAEDVAVYYCQQYSSYPFTFGGGTKVEIKR : 1.59e+08

Then there is this binder:
Prompt: May I ask what Ka has been recorded for mouse/human chimeric antibody HC0LC0 (antibody, human IgG4 S228P, kappa, V domains shown, Murine variable domains of R15E6 on human IgG4 (S228P) and kappa constant domains, expressed in CHO cells; also called VH0-VL0) VH: EVQLVETGGGLVQPKGSMKLSCAASGFTFNANAMNWIRQAPGKGLEWVARIRTKSNNYATYYAGSVKDRFTISRDDAQNMLYLQMNDLKTEDTAMYYCVRDYYGSSAWITYWGQGTLVTVSA VL: DIVMTQSHKFMSTSVGDRVSITCKASQHVGTAVAWYQQKPDQSPKQLIYWASTRHTGVPDRFTGSGSGTDFTLTISNVQSEDLADYFCQQYSSYPFTFGSGTKLEIKR ?
Response: 1.61e+08

Source: patent US20190077863A1
